Source of measurements: the nanobody polyreactivity screen of Harvey et al. (2022)

PROTOCOL: yeast display, Sf9 membrane polyspecificity reagent, FACS + sequencing; frameworks hold sequencing errors
READOUT: polyreactivity (PSR sort gate)

QVQLVESGGGLVQAGGSLRLSCAASGSTFKRYARGWYRQAPGKEREFVAGISSRGSRTYYADSVKGRFTISRDNAKNTVYLQMNSLKPEDTAVYYCAVSGNHVSPPYGYWGQGTQVTVSS : high polyreactivity
QVQLVESGGGLVQAGGSLRLSCAASGSTFYPYAMGWYRQAPGKERELVAAIRFSGASTYYADSVKGRFTISRDNAKNTVYLQMNSLKPEDTAVYYCAARYVYSWPYRYGYWGQGTQVTVSS : low polyreactivity
QVQLVESGGGLVQAGGSLRLSCAASGSTLYGYVMGWYRQAPGKERELVADITWSGGSTYYADSVKGRFIISRDNAKNTVYLQMNSLKPEDTAVYYCNADRYGIYYYSRLPFDYWGQGTQVTVSS : low polyreactivity
QVQLVESGGGLVQAGGSLRLSCAASGFTFGGNVMGWYRQAPGKERELVAAIRGTGGNTYYADSVKGRFTISRDNAKNTVYLQMNSLKPEDTAVYYCAAAQRELPTVRRNYWGQGTQVTVSS : high polyreactivity
QVQLVESGGGLVQAGRSIRLSCAASGRTFLGNSLGWYRQAPGKEMELVAAITRNGGGTYYPDSVKGRFTISRDNAKNTVYLQMNSLKPEDTAVYYCAALTSLFWRGGGLDYWGQGTQVTVSS : high polyreactivity
QVQLVESGGGLVQAGGSLRLSCAASGRNFNSYAMGWYRQAPGKERELVAAISWNGGSTYYADSVKGRFTISRDNAKITVYLQMNSLKPEDTAVYYCAATYLLRGDAYYSWGQGTQVTVSS : high polyreactivity
QVQLVESGGGLVQAGGSLRLSCASSGRTSLGYVMGWYRQAPGKERELVAAITKSGGSTYYADSVKGRFTISRDNAKNTVYLQMNSQKPEDTAVYYCAARNPWSARYEYWGQGTQVTVSS : high polyreactivity
QVQLVDSRGGLVQAGGSLRLICAASGSTFGRYARGWYRPEPGTERELVAAISWRGGSTFYADSVKGRFTISRDNAKNTVYLLMISLKPEDTAVYYCAAVSYGRPRMGYWGQGTQVTVSS : high polyreactivity
QDQLVESGGGLVQAGGRLRLSCAASGRTFSSYAMGWYRQAPGKERELVAAISRRGSSTFYADSVKGRFTISRDNAKNTVYLQMNSLKPEDTAVYYCNADLSGQTRYDYWVQGTQVTVSS : high polyreactivity
QVQRVESGGGLVQAGGSLRLSCAASGRIFGYNAMGWSRPAPGKERELVASISRDGDRTYYADSVKGRVTISRDNAKNTVYLQMNSLKPEDTAVDYCATRQYRYGYLYDYWAQGTQVTVSS : high polyreactivity
QVQLVESGGGLVQAGGSLRLSCAASGFTLYAYVMGWYRQAPGKERELVAAISRSGGSTYYADSVKGRFTISRDNAKNTVYLQMNSLKPEDTAVYYCAAQSKYYQYYSWGQGTQVTVSS : high polyreactivity
QVQLVESGGGLVQAGGGLRLSCAASGSIFLINAMGWYRQAPGKERELVAAITSGSSTNYADSVKGRFTISRDNAKNTVYLQMNSLKPEDTAVYYCAASTPYSYRYDYWGQGTQVTVSS : low polyreactivity
QVQLVESGVCIVQAGGSLRLRCASSGSSLLNNAMGWYRQAPGKERELVAAITWSGGDTYYADSVKGRFTISRDNAKNTVYLQMNCLLQEDTAVYDCAADRYQWLTAYTDDLDHDYWGQGTQVTVSS : high polyreactivity
QVQLVESGGGLVQAGGSLRLICAASGRIFKINAMGWYRQAPGKERELVAGISGSGSDTYYADSVKGSFTISRDNAKYTVYLQMNSLKPEDTAVYYCAAVAYDWALFYYWGQGTQVTVSS : low polyreactivity
QVQLVESGGGLVQAGGSLRLSCAASGIIFKYYAMGWYRQAPGKERELVAAISRSSGSTYYADSVKGRFTISRDNAKNTVYLQMNSLKPEDTAVYYCAASGWPQKYDYWGQGTQVTVSS : high polyreactivity
QVQLVESGGGLVQAGGSLRLSCAASGRIFVIYAMGWYRQAPGKERELVAVINDDGSTNYADSVKGRFTISRDNAKNTVYLQMNSLKPEDTAVYYCAARGGRPLIHHWPWYSWKYDYWGQGTQVTVSS : low polyreactivity
QVQLVESGGGLVQAGGSLRLSCAASGYIFKNYAMGWYRQAPGKERELVAAITRRGASTYYADSVKGRFTISRDNAKNTVYLQMNSLKPEDTAVYYCAAYPWPPGEYDYWGQGTQVTVSS : low polyreactivity
QVQLVESGGGLVQAGGSLRLSCAASGGTFSYYAMGWYRQAPGKERELVAAITYSGDRTYYADSVKGRFTISRDNAKNTVYLQMNSLKPEDTAVYYCNAVRGSWYGYYYWGQGTQVTVSS : high polyreactivity
QVHLVESGGGLVQAGGSLRLTCAASGIIFLRYAIGWYRQAPGKERDLVAAITRGGITYYADSVKGRFTISRDNAKNTVYLQMNSLKPEDTAVYYCAATYSGNYSMCRGYDYWGQGTQVTVSS : low polyreactivity
QVQLVESGGGLVQAGGSLRLSCAASGCIFAHNAMGWYRQAPGKERELVAASTYYADSVKGRFTISRDNAKNTVYLQMNSLKPEDTAVYYCAKRTRFSPGHDYWGQGTQVTVSS : high polyreactivity
QVQLVESGGGLVQAGGSLRLSCAASGPIVAYNAMGWYRQAPGKERELVAAISYSGGSTYYADSVKGRFTISRDNAKNTVYLQMNSLKPEDTAVYYCNAVYRYRTYRYDYWGQGTQVTVSS : high polyreactivity
